Hello, the source for this data is patent US20240066131A1, in case you need it.

Target: T1, human ferroportin (SLC40A1) fused in frame with GFP, stably expressed in HEK293 cells (human, UniProt Q9NP59 1-571)
T1 sequence (looked up): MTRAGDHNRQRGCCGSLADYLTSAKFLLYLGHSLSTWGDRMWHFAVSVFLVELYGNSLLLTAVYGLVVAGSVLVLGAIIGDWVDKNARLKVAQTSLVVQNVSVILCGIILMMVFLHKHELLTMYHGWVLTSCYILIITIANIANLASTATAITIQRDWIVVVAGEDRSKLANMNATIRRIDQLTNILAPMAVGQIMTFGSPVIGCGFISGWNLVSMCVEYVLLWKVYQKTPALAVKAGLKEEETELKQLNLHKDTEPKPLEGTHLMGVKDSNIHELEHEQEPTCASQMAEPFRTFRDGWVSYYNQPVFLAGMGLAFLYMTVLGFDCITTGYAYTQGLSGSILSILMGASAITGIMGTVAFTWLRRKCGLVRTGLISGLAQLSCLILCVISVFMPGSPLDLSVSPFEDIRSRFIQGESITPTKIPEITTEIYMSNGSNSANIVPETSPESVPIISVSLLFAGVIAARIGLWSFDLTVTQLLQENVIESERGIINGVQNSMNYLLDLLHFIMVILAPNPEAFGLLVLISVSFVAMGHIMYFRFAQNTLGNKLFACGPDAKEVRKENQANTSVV
Assay: cell-based or functional assay
Starred links: 1 amine or outer side, 2 acyl side, 3 side chain; linkers in the order of their positions; H or OH if unused. Non-standard residues stand in square brackets, D forms with d. Groups on a side chain read outwards from the residue. No end group written: not given here. *: point of attachment. C18 diacid = O=C(O)CCCCCCCCCCCCCCCCC(=O)*; Dip = N[C@H](C(=O)O)C(c1ccccc1)c1ccccc1; γGlu = O=C(O)[C@H](CCC(=O)[*:2])N[*:1]; β3hF = N[C@H](CC(=O)O)Cc1ccccc1; Isovaleryl = CC(C)CC(=O)*; AEEA = NCCOCCOCC(=O)O; Ahx = NCCCCCC(=O)O

# BINDER, COMPARATOR, FPN IC50 / nM
data = [
    ("Ac-K([AEEA-AEEA-γGlu-C18 diacid])TH[Dip]PAI[dK][β3hF]-NH2 (SMILES CC[C@H](C)[C@H](NC(=O)[C@H](C)NC(=O)[C@@H]1CCCN1C(=O)[C@@H](NC(=O)[C@H](Cc1c[nH]cn1)NC(=O)[C@@H](NC(=O)[C@H](CCCCNC(=O)COCCOCCNC(=O)COCCOCCNC(=O)CC[C@H](NC(=O)CCCCCCCCCCCCCCCCC(=O)O)C(=O)O)NC(C)=O)[C@@H](C)O)C(c1ccccc1)c1ccccc1)C(=O)N[C@H](CCCCN)C(=O)N[C@H](CC(N)=O)Cc1ccccc1) [Ac-[Lys(1PEG2_1PEG2_IsoGlu_C18_Diacid)]-T-H-[Dpa]-P-A-I-[(D)Lys]-[bhPhe]-NH2]", "=", 3370),
    ("Ac-K([AEEA-AEEA-Ahx-C18 diacid])TH[Dip]PAI[dK][β3hF]-NH2 (SMILES CC[C@H](C)[C@H](NC(=O)[C@H](C)NC(=O)[C@@H]1CCCN1C(=O)[C@@H](NC(=O)[C@H](Cc1c[nH]cn1)NC(=O)[C@@H](NC(=O)[C@H](CCCCNC(=O)COCCOCCNC(=O)COCCOCCNC(=O)CCCCCNC(=O)CCCCCCCCCCCCCCCCC(=O)O)NC(C)=O)[C@@H](C)O)C(c1ccccc1)c1ccccc1)C(=O)N[C@H](CCCCN)C(=O)N[C@H](CC(N)=O)Cc1ccccc1) [Ac-[Lys(1PEG2_1PEG2_Ahx_C18_Diacid)]-T-H-[Dpa]-P-A-I-[(D)Lys]-[bhPhe]-NH2]", ">", 3000),
    ("Isovaleryl-LTH[Dip]PK([AEEA-AEEA-γGlu-C18 diacid])[N_Ethyl_Nap] [Isovaleric Acid-L-T-H-[Dpa]-P-[Lys(1PEG2_1PEG2_IsoGlu_C18_Diacid)]-N_Ethyl_Nap]", "=", 1440),
    ("XETHXPXX (N-term Isovaleric Acid; Dpa4; Lys(1PEG2_1PEG2_IsoGlu_C18_Diacid)6; bhPhe7; C-term NH2) [Isovaleric Acid-E-T-H-[Dpa]-P-[Lys(1PEG2_1PEG2_IsoGlu_C18_Diacid)]-[bhPhe]-NH2]", "=", 1690),
]
